Measured self-splicing fitness (ln) values are reported for all entries that follow.
# protocol text: self-splicing fitness, log relative to wild type (ln ratio); higher = more splicing; Tetrahymena group I intron in knt gene, E. coli kanamycin selection, DiMSum; sequences stand for … in CUCUCU…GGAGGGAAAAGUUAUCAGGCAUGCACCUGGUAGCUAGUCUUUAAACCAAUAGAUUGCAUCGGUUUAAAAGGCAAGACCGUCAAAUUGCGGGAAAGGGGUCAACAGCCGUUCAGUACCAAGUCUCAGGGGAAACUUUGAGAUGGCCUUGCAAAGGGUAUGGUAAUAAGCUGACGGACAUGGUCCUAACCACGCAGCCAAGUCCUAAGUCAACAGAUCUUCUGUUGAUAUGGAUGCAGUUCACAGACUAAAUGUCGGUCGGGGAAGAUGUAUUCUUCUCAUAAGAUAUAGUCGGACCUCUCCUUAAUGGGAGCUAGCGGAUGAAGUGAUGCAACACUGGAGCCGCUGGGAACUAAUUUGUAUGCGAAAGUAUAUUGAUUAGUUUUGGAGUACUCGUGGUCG;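 also: selection with 25 µg/mL kanamycin versus none on LB agar overnight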
# condition notes: 37 °C
test readout: self-splicing fitness (ln)

[[record]]
residue_codes = "UAGAAGCAAUAUUACGUGGG"
reading = -2

[[record]]
residue_codes = "CGUUAGCAAUAUUACGUUGC"
reading = -1.95

[[record]]
residue_codes = "ACAUAGCAAUAUUACGCGCA"
reading = -0.818

[[record]]
residue_codes = "AUCAAGCAAUAUUACGCCUG"
reading = -0.797

